tested on: Artemia salina (organism); assay: Toxicity in Artemia salina after 24 hrs; format: organism-based; settings: in vivo
Record form. Attribute: LC50 at 24 h. Fill in for each entry.
Answers are plain numbers, in µM.

Solved cases below.
>>> observed_measurement("C=C(C#N)C(O)c1ccc(Br)cc1 (configuration not stated)")
130
>>> observed_measurement("C=C(C#N)C(O)c1ccncc1 (configuration not stated)")
443
>>> observed_measurement("C=C(C#N)C(O)c1ccccc1[N+](=O)[O-] (configuration not stated)")
430
>>> observed_measurement("C=C(C#N)C(O)c1cccnc1 (configuration not stated)")
555
>>> observed_measurement("C=C(C#N)C(O)c1ccccn1 (configuration not stated)")
545
>>> observed_measurement("C=C(C#N)C(O)c1ccc([N+](=O)[O-])cc1 (configuration not stated)")
180

Proceeding to the next compound to report its LC50 at 24 h.
Form field LC50 at 24 h for item C=C(C#N)C(O)c1cccc([N+](=O)[O-])c1 (configuration not stated) on Artemia salina (organism): 471
